System: S. cerevisiae SK1 pCDA2-eGFP (USY613), sporulating;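 also: active if sensitivity score above 5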
Assay: CDA2-GFP sporulation assay sensitivity score (z-score vs DMSO controls); higher = stronger inhibition of sporulation, active = hit call of the paper
Counter-ions that a name gives are not always drawn.
// allowed return values: active, inactive

[in] Record request — test call for Cc1c(O)c(=O)ccn1C [Deferiprone] (stock concentration (mM, diluted 1:100): 10)
[out] inactive

[in] Likewise for CO[C@H]1/C=C/O[C@@]2(C)Oc3c(C)c(O)c4c(c3C2=O)C2=NC3(CCN(CC(C)C)CC3)NC2=C(NC(=O)/C(C)=C\C=C\[C@H](C)[C@H](O)[C@@H](C)[C@@H](O)[C@@H](C)[C@H](OC(C)=O)[C@@H]1C)C4=O [Rifabutin] (stock concentration (mM, diluted 1:100): 10) ?
[out] inactive

[in] Likewise for CN(C)CCC[C@@]1(c2ccc(F)cc2)OCc2cc(C#N)ccc21 [Escitalopram oxalate] (stock concentration (mM, diluted 1:100): 7.9) ?
[out] inactive

[in] Likewise for CN(C)CC[C@@H](c1ccc(Cl)cc1)c1ccccn1 [Dexchlorpheniramine maleate] (stock concentration (mM, diluted 1:100): 7) ?
[out] inactive

[in] Likewise for CC[C@@H]1C(=O)OC[C@@H]1Cc1cncn1C [Pilocarpine hydrochloride] (stock concentration (mM, diluted 1:100): 10) ?
[out] inactive

[in] Likewise for C[N+]1(C)CCC(OC(=O)C(O)(c2ccccc2)C2CCCC2)C1 (stereo unspecified) [Glycopyrrolate] (stock concentration (mM, diluted 1:100): 10) ?
[out] inactive

[in] Likewise for Cc1ccsc1C(=CCCN1CCC[C@@H](C(=O)O)C1)c1sccc1C [Tiagabine hydrochloride] (stock concentration (mM, diluted 1:100): 9.1) ?
[out] inactive

[in] Likewise for CC(C)OC(=O)CCC/C=C\C[C@@H]1[C@@H](CC[C@@H](O)CCc2ccccc2)[C@H](O)C[C@@H]1O [Latanoprost] (stock concentration (mM, diluted 1:100): 10.3) ?
[out] active

[in] Likewise for CN(C)CCC=C1c2ccccc2COc2ccccc21 [Doxepin] (stock concentration (mM, diluted 1:100): 10) ?
[out] active

[in] Likewise for CNCCCC12CCC(c3ccccc31)c1ccccc12 [Maprotilline hydrochloride] (stock concentration (mM, diluted 1:100): 10) ?
[out] inactive

[in] Likewise for COc1cc(-c2ccc(=O)[nH]n2)ccc1OC(F)F [Zardaverine] (stock concentration (mM, diluted 1:100): 11.7) ?
[out] inactive

---

Test system: S. cerevisiae NKY1551 his4x/his4B, sporulating;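 also: active if sensitivity score above 5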
Assay: HIS4 meiotic recombination assay sensitivity score (z-score vs DMSO controls); higher = stronger inhibition of sporulation/recombination, active = hit call of the paper
Structures can show the parent of a compound that is named as a salt.
// allowed return values: Yes (active), No (inactive)

Take a look at these entries with their results.
INSERT INTO measurements (molecule, category_label) VALUES
  ('CN1CCN(c2c(F)cc3c(=O)c(C(=O)O)cn4c3c2SCC4)CC1 [Rufloxacin hydrochloride] (stock concentration (mM, diluted 1:100): 10)', 'No'),
  ('CNCCCCOc1ccccc1Cc1ccccc1 [Bifemelane] (stock concentration (mM, diluted 1:100): 10)', 'Yes'),
  ('N[C@@H](C(=O)N[C@@H]1C(=O)N2C(C(=O)O)=C(CSc3cn[nH]n3)CS[C@H]12)c1ccc(O)cc1 [Seapuron] (stock concentration (mM, diluted 1:100): 8.6)', 'No');

[in] Record request — test call for C#C[C@]1(O)CC[C@H]2[C@@H]3[C@H](C)CC4=C(CCC(=O)C4)[C@H]3CC[C@@]21C [Tibolone] (stock concentration (mM, diluted 1:100): 10)
[out] No

[in] Likewise for CC(C)c1nc(CN(C)C(=O)N[C@H](C(=O)N[C@@H](Cc2ccccc2)C[C@H](O)[C@H](Cc2ccccc2)NC(=O)OCc2cncs2)C(C)C)cs1 [Ritonavir] (stock concentration (mM, diluted 1:100): 10) ?
[out] No

[in] Likewise for CC(C)c1ccc2c(c1)c(SC(C)(C)C)c(CC(C)(C)C(=O)O)n2Cc1ccc(Cl)cc1 [Tocris-1311] (stock concentration (mM, diluted 1:100): 10) ?
[out] No

[in] Likewise for Cn1nnc2c(C(N)=O)ncn2c1=O [Temozolomide] (stock concentration (mM, diluted 1:100): 10) ?
[out] No

These data points were gathered from the supplement of paper PMC3414501.
